- tgt: UniProtKB O43614
- Sequence (O43614 whole entry): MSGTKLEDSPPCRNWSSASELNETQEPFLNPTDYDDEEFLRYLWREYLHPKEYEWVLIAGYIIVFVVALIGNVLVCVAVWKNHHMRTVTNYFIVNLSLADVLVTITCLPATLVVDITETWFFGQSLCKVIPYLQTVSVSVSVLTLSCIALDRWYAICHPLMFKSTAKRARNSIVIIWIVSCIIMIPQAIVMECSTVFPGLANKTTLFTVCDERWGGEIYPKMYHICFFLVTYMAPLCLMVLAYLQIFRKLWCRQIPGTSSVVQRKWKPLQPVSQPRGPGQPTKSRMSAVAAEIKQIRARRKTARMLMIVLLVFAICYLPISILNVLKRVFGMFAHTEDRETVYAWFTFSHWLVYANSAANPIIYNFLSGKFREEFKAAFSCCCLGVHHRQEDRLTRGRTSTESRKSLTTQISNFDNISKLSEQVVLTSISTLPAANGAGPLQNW
- method: Agonist activity at human OX2R expressed in human HEK293 cells co-transfected with human Galphaq assessed as accumulation of inositol phosphate by scintillation counter analysis
pEC50: −log10 of the molar value.
measurementLabel: pEC50

Solved cases below.
compound="COC[C@H](Cc1ccc(C)cc1)n1c(=N)n(C(c2ccc(C)cc2)C(F)(F)F)c2ccccc21 (mixture of isomers)" valuereported=5.85
compound=Cc1ccc(C[C@@H](CNS(=O)(=O)C(F)F)n2c(=N)n(Cc3ccc(C)cc3)c3ccccc32)cc1 valuereported=5.19
compound=Cc1ccc(C[C@@H](COCCN(C)C)n2c(=N)n(Cc3ccc(C)cc3)c3ccccc32)cc1 valuereported=5.40

(I) CSC[C@H](Cc1ccc(C)cc1)n1c(=N)n(Cc2ccc(C)cc2)c2ccccc21
(II) Cc1ccc(C[C@@H](COCCC#N)n2c(=N)n(C(C)c3ccc(C)cc3)c3cccnc32)cc1 (stereo in doubt; 69c)
// which entry reports the smaller pEC50, I or II ? Response format: the label of the selected entry.
I
(I: 5.63, II: 6.43)

(1) Cc1ccc(C[C@@H](CNC(=O)CO)n2c(=N)n(C(C)c3ccc(C)cc3)c3ccccc32)cc1 (stereo in doubt; 65b)
(2) Cc1ccc(C[C@@H](CNC(=O)CC(F)(F)F)n2c(=N)n(Cc3ccc(C)cc3)c3ccccc32)cc1
// which entry reports the smaller pEC50, 1 or 2 ? Response format: the label of the selected entry.
2
